assay: Photostationary state (PSS) determination by HPLC-MS in aqueous assay buffer; assay type: physicochemical; conditions: 21 °C, HPLC-MS, 3 min illumination 525 nm, 60 μM, aqueous buffer 0.6% DMSO
measure.name: PSS525 (%trans) (%)

compound	PSS525 (%trans) (%)
Cc1cc(/N=N/c2cccc(-c3ccc(CO)cc3C)c2)ccc1OCC(O)C(C)(C)C (stereo not drawn) [Compound 12c]	86
Cc1cc(/N=N/c2cccc(-c3ccc(C(=O)O)cc3C)c2)ccc1OCC(O)C(C)(C)C (stereo not drawn) [Compound 11c]	84
Cc1cc(OCC(O)C(C)(C)C)ccc1/N=N/c1cccc(-c2ccc(C(=O)O)cc2C)c1 (stereo not drawn) [Compound 11d]	61
Cc1cc(OCC(O)C(C)(C)C)ccc1N=Nc1cccc(-c2ccc(C(=O)O)cc2)c1 (stereo not drawn) [Compound 11b]	55
Cc1cc(OCC(O)C(C)(C)C)ccc1/N=N/c1cccc(-c2ccc(CO)cc2)c1 (stereo not drawn) [Compound 12b]	84
COC(=O)c1ccc(-c2cccc(/N=N/c3ccc(OCC(O)C(C)(C)C)cc3C)c2)cc1 (stereo not drawn) [Compound 10b]	73
COC(=O)c1ccc(-c2cccc(/N=N/c3ccc(OCC(O)C(C)(C)C)c(C)c3)c2)cc1 (stereo not drawn) [Compound 10a]	86
Cc1cc(/N=N/c2cccc(-c3ccc(CO)cc3)c2)ccc1OCC(O)C(C)(C)C (stereo not drawn) [Compound 12a]	87
Cc1cc(OCC(O)C(C)(C)C)ccc1/N=N/c1cccc(-c2ccc(CO)cc2C)c1 (stereo not drawn) [Compound 12d]	82
COC(=O)c1ccc(-c2cccc(/N=N/c3ccc(OCC(O)C(C)(C)C)c(C)c3)c2)c(C)c1 (stereo not drawn) [Compound 10c]	83
Cc1cc(/N=N/c2cccc(-c3ccc(C(=O)O)cc3)c2)ccc1OCC(O)C(C)(C)C (stereo not drawn) [Compound 11a]	74
COC(=O)c1ccc(-c2cccc(/N=N/c3ccc(OCC(O)C(C)(C)C)cc3C)c2)c(C)c1 (stereo not drawn) [Compound 10d]	81

----------
Reported %cis at the photostationary state is given for each of the following molecules.
experiment: Proportions of cis and trans at the photostationary state in DMSO from absorbance spectra (Ernst Fischer method); type: physicochemical; conditions: 530 nm

Answered examples (3):
molecule	%cis at the photostationary state
Cc1cc(/N=N/c2cccc(-c3ccc(CO)cc3C)c2)ccc1OCC(O)C(C)(C)C (stereo not shown) [Compound 12c]	26,87%
Cc1cc(/N=N/c2cccc(-c3ccc(CO)cc3)c2)ccc1OCC(O)C(C)(C)C (stereo not shown) [Compound 12a]	30,20%
Cc1cc(OCC(O)C(C)(C)C)ccc1N=Nc1cccc(-c2ccc(C(=O)O)cc2)c1 (stereo not shown) [Compound 11b]	29,14%

What does the data say about its %cis at the photostationary state? Entry: COC(=O)c1ccc(-c2cccc(/N=N/c3ccc(OCC(O)C(C)(C)C)cc3C)c2)cc1 (stereo not shown) [Compound 10b]
31,97%

----------
molecular target: VDR (Homo sapiens); experiment: Luminescent proximity homogeneous assay (AlphaScreen): interaction of purified VDR, RxR and TRAP220 coactivator fragment; assay type: biochemical; conditions: after illumination (365 nm) for 3 min; mean ± SEM, n >= 3; read-out: Activity (pEC50) (converted)
Sequence (P11473 whole entry, the tested form may be a part): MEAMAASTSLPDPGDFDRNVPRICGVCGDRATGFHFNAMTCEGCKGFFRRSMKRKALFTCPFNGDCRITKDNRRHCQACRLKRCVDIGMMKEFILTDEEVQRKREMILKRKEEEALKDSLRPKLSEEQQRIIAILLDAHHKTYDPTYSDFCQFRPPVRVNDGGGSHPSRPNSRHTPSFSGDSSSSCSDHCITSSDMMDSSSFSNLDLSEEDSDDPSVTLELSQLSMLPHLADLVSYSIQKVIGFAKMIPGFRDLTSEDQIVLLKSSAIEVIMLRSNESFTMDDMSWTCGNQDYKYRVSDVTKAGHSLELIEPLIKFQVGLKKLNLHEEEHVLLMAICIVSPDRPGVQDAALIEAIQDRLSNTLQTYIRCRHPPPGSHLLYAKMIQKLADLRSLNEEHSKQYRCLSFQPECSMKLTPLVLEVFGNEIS
Sequence (P19793 whole entry partner, the tested form may be a part): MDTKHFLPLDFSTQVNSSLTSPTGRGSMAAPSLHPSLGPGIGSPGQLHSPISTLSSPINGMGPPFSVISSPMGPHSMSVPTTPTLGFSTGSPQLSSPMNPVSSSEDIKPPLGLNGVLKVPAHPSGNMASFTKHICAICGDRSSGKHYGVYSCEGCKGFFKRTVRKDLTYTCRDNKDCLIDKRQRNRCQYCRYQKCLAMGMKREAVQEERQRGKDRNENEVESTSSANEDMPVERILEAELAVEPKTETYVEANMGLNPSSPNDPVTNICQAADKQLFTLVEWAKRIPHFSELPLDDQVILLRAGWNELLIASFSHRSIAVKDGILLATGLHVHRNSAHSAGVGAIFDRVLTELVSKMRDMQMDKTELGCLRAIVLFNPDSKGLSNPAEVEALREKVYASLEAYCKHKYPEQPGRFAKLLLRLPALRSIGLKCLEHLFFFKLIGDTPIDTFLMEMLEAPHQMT
Sequence (Q15648 whole entry partner, the tested form may be a part): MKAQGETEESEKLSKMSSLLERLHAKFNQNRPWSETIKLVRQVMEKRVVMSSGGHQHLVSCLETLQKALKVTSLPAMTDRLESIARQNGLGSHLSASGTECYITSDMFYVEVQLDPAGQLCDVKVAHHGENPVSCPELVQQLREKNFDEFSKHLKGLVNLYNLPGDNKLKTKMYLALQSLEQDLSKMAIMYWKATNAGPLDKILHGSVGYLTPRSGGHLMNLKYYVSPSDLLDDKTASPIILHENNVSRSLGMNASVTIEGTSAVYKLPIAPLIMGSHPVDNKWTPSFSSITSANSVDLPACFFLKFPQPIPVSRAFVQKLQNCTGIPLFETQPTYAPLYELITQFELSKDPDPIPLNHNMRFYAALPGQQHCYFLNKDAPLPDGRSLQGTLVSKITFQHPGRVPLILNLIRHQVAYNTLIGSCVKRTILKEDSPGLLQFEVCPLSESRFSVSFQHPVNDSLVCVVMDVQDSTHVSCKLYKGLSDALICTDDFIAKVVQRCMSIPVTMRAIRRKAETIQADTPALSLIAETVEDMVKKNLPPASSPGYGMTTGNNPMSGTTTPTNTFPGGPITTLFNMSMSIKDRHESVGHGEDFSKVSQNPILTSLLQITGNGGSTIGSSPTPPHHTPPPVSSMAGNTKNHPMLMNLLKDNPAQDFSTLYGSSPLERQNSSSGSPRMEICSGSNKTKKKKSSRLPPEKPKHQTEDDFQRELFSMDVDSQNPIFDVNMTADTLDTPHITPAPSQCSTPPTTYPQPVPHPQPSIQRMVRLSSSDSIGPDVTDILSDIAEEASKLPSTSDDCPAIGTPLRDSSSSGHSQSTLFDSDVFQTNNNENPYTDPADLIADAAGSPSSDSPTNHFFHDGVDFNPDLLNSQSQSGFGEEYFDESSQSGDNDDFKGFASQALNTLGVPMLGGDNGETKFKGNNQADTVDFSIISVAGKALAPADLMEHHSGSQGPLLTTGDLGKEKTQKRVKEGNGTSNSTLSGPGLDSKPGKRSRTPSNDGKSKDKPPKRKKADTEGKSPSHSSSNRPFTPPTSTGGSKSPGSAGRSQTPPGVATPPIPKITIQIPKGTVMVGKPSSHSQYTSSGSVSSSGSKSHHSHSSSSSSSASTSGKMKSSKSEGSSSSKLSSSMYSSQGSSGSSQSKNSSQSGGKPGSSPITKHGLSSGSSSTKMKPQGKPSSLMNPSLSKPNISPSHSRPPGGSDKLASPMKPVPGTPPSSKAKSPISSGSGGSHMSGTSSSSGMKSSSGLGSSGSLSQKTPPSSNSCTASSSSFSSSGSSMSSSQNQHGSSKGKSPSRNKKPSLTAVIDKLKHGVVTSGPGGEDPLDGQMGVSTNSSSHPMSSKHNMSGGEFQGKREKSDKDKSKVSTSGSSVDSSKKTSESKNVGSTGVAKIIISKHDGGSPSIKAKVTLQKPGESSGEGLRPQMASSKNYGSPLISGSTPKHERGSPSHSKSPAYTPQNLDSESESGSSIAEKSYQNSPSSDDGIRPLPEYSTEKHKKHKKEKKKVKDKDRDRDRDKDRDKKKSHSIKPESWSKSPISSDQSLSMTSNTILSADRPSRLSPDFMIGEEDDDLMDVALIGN
measure.name: EC50 (µM)

molecule	target.or.system	endpoint.unit	EC50
Cc1cc(OCC(O)C(C)(C)C)ccc1N=Nc1cccc(-c2ccc(C(=O)O)cc2)c1 (stereo not shown) [Compound 11b]	VDR (Homo sapiens)	µM	0.0589
COC(=O)c1ccc(-c2cccc(/N=N/c3ccc(OCC(O)C(C)(C)C)cc3C)c2)c(C)c1 (stereo not shown) [Compound 10d]	VDR (Homo sapiens)	µM	0.813
COC(=O)c1ccc(-c2cccc(/N=N/c3ccc(OCC(O)C(C)(C)C)c(C)c3)c2)cc1 (stereo not shown) [Compound 10a]	VDR (Homo sapiens)	µM	1.1
Cc1cc(OCC(O)C(C)(C)C)ccc1/N=N/c1cccc(-c2ccc(CO)cc2)c1 (stereo not shown) [Compound 12b]	VDR (Homo sapiens)	µM	0.794
